Experiment: self-splicing fitness, log relative to wild type (ln ratio); higher = more splicing; Tetrahymena group I intron in knt gene, E. coli kanamycin selection, DiMSum; sequences stand for … in CUCUCU…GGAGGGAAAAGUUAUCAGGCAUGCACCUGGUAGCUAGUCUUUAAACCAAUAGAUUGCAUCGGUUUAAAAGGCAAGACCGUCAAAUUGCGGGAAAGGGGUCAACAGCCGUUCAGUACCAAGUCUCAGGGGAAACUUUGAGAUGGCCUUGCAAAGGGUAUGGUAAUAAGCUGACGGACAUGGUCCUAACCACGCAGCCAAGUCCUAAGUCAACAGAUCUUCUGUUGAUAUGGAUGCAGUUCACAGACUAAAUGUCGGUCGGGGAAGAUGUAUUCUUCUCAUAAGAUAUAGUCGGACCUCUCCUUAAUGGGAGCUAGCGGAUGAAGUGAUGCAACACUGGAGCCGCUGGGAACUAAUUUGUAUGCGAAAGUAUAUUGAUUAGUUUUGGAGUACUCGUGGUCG;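 also: selection with 25 µg/mL kanamycin versus none on LB agar overnight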
Conditions: 37 °C
Kindly supply the reported self-splicing fitness (ln) values for the records listed here.
One number for each entry.

INSERT INTO assay_data (polymer_sequence, reading) VALUES
  ('GUGGAGCAAUAUUACGGUCG', -1.5),
  ('UGCAAGCAAUAUUACGGUCU', 0.283),
  ('AAACAGCAAUAUUACGAAGC', -2.75);

Return reported self-splicing fitness (ln) values for all items listed beneath this line.
1. ACACAGCAAUAUUACGCGGG
2. UCCAAGCAAUAUUACGGUGG
3. CUGAAGCAAUAUUACGUCGA
4. GACAAGCAAUAUUACGGCGC
5. UCAGAGCAAUAUUACGCCCU

-1.69
-0.995
-1.57
0.11
-2.21

Return reported self-splicing fitness (ln) values for all items listed beneath this line.
1. AAAAAGCAAUAUUACGCGGG
2. GCGCAGCAAUAUUACGUGAC
3. GUGAAGCAAUAUUACGCCGC
4. UACUAGCAAUAUUACGUAAU

-1.93
-1.03
-1.5
-1.93

Return reported self-splicing fitness (ln) values for all items listed beneath this line.
1. CAUAAGCAAUAUUACGUCUG
2. AACCAGCAAUAUUACGGUUG

1: -0.45; 2: -0.839

Return reported self-splicing fitness (ln) values for all items listed beneath this line.
1. AUGUAGCAAUAUUACGUAUC
2. UCAUAGCAAUAUUACGCAGG
3. UGUCAGCAAUAUUACGGAAU

[-2.58, -3.01, -0.922]

====

Test: self-splicing fitness, log relative to wild type (ln ratio); higher = more splicing; Tetrahymena group I intron in knt gene, E. coli kanamycin selection, DiMSum; sequences stand for … in CUCUCU…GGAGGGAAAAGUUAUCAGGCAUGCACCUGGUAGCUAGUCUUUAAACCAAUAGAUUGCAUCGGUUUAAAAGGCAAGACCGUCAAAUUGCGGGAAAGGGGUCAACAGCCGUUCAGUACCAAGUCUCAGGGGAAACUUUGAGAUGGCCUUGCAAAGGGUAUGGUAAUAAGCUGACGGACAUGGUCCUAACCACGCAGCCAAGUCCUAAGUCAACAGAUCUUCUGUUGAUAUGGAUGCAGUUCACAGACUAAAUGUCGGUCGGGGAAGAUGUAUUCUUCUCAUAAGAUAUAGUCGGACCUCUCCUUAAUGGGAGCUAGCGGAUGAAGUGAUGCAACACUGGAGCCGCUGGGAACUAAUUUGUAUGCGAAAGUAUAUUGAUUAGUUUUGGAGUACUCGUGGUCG
Settings: 30 °C
Outcome label depends on self-splicing fitness (ln) relative to -2: at/above gives Condition met, below gives Condition not met.

These recorded examples may help you get a feel for the data.
INSERT INTO measurements (polymer_sequence, label) VALUES
  ('AACUAGCAAUAUUACGACCA', 'Condition met'),
  ('GCCGAGCAAUAUUACGAUUC', 'Condition met'),
  ('CGUCAGCAAUAUUACGUCCC', 'Condition not met'),
  ('UUUCAGCAAUAUUACGUCCG', 'Condition met'),
  ('CGAAAGCAAUAUUACGGAAU', 'Condition not met'),
  ('GGAUAGCAAUAUUACGUCUC', 'Condition not met'),
  ('ACGUAGCAAUAUUACGCAAG', 'Condition not met'),
  ('CUAUAGCAAUAUUACGCGAC', 'Condition met');

Say whether `UAAUAGCAAUAUUACGAGGG` shows self-splicing fitness (ln) of -2 or more.
Condition not met

Say whether `UUACAGCAAUAUUACGUUAG` shows self-splicing fitness (ln) of -2 or more.
Condition met

Say whether `ACUCAGCAAUAUUACGGACU` shows self-splicing fitness (ln) of -2 or more.
Condition met

Say whether `AAUAAGCAAUAUUACGUUAA` shows self-splicing fitness (ln) of -2 or more.
Condition not met

Say whether `AUAAAGCAAUAUUACGUCGG` shows self-splicing fitness (ln) of -2 or more.
Condition met

Say whether `AGUGAGCAAUAUUACGGUUU` shows self-splicing fitness (ln) of -2 or more.
Condition not met

Say whether `GGGUAGCAAUAUUACGUAAC` shows self-splicing fitness (ln) of -2 or more.
Condition met

Say whether `UCACAGCAAUAUUACGUAGU` shows self-splicing fitness (ln) of -2 or more.
Condition not met

====

Assay: self-splicing fitness, log relative to wild type (ln ratio); higher = more splicing; Tetrahymena group I intron in knt gene, E. coli kanamycin selection, DiMSum; sequences stand for … in CUCUCU…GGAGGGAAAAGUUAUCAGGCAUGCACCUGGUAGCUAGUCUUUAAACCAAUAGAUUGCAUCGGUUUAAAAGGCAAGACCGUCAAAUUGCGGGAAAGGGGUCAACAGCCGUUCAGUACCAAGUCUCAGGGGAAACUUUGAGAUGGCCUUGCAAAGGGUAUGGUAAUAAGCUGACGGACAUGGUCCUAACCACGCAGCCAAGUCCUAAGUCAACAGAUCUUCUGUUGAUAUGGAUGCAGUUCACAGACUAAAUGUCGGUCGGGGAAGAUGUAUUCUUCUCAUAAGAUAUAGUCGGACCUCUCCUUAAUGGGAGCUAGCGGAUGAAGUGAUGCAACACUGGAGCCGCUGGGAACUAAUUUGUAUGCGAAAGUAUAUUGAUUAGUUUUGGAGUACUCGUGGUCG
Conditions: 37 °C
measurement-type: self-splicing fitness (ln)
Answers are plain numbers.

Would you please look over these solved cases?
INSERT INTO assay_data (polymer_sequence, reading) VALUES
  ('UCCUAGCAAUAUUACGUCAC', -2.6),
  ('GUUAAGCAAUAUUACGACUU', 0.278),
  ('CAAUAGCAAUAUUACGUAAU', -1.92),
  ('AUAGAGCAAUAUUACGCAUC', -2.11),
  ('ACUCAGCAAUAUUACGAAGU', -1.75);

Return reported self-splicing fitness (ln) values for all items listed beneath this line.
1. GUACAGCAAUAUUACGCAUA
2. UGUAAGCAAUAUUACGGGGA
3. AAAUAGCAAUAUUACGACUU

-1.56
-1.19
0.387

Return reported self-splicing fitness (ln) values for all items listed beneath this line.
1. UAAGAGCAAUAUUACGGGUA
2. AACGAGCAAUAUUACGUAGA
3. UUUCAGCAAUAUUACGAUUA
4. GGCUAGCAAUAUUACGCAUG
5. AGAAAGCAAUAUUACGGUCG
6. GGCCAGCAAUAUUACGAGCA
7. UAGUAGCAAUAUUACGGCAG

[-1.59, -2.43, 0.0465, -1.04, -0.0273, -0.145, -1.57]

Return reported self-splicing fitness (ln) values for all items listed beneath this line.
1. UCAAAGCAAUAUUACGGGUG
2. GAUAAGCAAUAUUACGGAAG

[0.234, -1.95]

====

Assay: self-splicing fitness, log relative to wild type (ln ratio); higher = more splicing; Tetrahymena group I intron in knt gene, E. coli kanamycin selection, DiMSum; sequences stand for … in CUCUCU…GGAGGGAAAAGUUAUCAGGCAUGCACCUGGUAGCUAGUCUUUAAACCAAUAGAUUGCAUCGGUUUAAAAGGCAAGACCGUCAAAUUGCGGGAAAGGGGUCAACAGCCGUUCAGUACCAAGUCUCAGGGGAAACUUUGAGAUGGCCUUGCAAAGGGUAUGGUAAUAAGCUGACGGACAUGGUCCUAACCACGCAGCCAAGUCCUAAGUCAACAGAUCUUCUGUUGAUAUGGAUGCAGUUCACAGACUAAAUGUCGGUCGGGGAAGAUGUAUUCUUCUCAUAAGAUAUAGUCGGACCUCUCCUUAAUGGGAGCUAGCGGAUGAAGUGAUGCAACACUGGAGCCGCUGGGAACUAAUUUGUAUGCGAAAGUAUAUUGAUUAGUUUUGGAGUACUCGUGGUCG
Details: 30 °C
Outcome label depends on self-splicing fitness (ln) relative to -3: at/above gives Criterion met, below gives Criterion not met.

INSERT INTO measurements (polymer_sequence, label) VALUES
  ('CCGGAGCAAUAUUACGAUUU', 'Criterion met'),
  ('UCCUAGCAAUAUUACGUCAG', 'Criterion not met'),
  ('ACGGAGCAAUAUUACGGGGA', 'Criterion met'),
  ('CCCCAGCAAUAUUACGAGGC', 'Criterion not met'),
  ('UAUAAGCAAUAUUACGCGAG', 'Criterion met');

Say whether `AACGAGCAAUAUUACGGGGU` shows self-splicing fitness (ln) of -3 or more.
Criterion not met

Say whether `GACCAGCAAUAUUACGAAAG` shows self-splicing fitness (ln) of -3 or more.
Criterion met

Say whether `GAUAAGCAAUAUUACGCUAG` shows self-splicing fitness (ln) of -3 or more.
Criterion met
